# testedTarget: FLK-1 receptor (Mus musculus, UniProt P35918)
# Construct: expressed in transfected cells; host or cells: NIH3T3 C7#3
# Sequence (P35918 20-1345): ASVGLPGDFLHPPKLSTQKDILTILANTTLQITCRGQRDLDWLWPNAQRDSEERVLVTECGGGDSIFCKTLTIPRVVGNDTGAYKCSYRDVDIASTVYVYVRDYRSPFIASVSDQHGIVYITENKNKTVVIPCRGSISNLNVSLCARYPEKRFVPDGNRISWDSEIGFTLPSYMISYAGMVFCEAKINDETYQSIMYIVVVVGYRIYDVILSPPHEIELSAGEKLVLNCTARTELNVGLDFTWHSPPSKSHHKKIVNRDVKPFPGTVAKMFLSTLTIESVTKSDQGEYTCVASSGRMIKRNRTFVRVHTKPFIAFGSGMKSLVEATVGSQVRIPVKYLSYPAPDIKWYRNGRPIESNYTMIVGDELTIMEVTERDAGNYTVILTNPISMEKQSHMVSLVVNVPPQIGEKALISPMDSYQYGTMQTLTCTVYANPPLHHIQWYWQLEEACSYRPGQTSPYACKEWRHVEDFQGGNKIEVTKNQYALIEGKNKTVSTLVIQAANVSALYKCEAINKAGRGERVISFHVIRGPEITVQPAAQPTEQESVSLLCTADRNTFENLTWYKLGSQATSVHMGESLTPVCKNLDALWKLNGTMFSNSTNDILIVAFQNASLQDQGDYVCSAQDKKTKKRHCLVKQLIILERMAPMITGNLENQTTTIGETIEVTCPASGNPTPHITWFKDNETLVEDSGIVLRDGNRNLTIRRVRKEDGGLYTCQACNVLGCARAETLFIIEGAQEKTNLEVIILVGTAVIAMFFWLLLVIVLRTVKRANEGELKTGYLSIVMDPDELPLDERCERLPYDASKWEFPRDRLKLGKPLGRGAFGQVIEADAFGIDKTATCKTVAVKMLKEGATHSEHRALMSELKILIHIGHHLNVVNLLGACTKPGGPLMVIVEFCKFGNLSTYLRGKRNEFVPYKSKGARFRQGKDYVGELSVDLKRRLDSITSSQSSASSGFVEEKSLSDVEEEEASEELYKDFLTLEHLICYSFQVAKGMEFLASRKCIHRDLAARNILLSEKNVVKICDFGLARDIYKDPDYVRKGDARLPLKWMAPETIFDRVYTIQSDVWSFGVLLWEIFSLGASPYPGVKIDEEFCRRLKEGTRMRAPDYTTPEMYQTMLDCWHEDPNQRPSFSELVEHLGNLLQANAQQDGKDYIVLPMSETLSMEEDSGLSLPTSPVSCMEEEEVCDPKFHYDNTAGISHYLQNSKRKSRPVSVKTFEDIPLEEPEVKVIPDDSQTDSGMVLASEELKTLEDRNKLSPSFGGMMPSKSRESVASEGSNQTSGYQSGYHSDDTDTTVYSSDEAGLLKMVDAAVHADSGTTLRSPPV
# assay: FLK-1 ELISA (kinase activity of the FLK-1 receptor in FLK-1/NIH3T3 cells, VEGF stimulated)
# Assay type: cell-based
observable: Fik Kinase %Inhibition (%)
Write the number in % without appending the unit.

[[record]]
compound = "O=C1Nc2ccc(I)cc2C1=Cc1cc(C(F)(F)F)ccc1F"
observable = "Fik Kinase %Inhibition"
quantitativeresult = 14.8

[[record]]
compound = "Cc1c(Br)ccc2c1C(=Cc1cc(O)c3c(c1O)CCCC3)C(=O)N2"
observable = "Fik Kinase %Inhibition"
quantitativeresult = -17.0

[[record]]
compound = "Cc1c(Br)ccc2c1C(=Cc1cc(Br)cc(Br)c1O)C(=O)N2"
observable = "Fik Kinase %Inhibition"
quantitativeresult = -2.7

[[record]]
compound = "O=C1Nc2ccc(S(=O)(=O)N3CCOCC3)cc2C1=Cc1c(Br)cnn1-c1ccc(Cl)cc1"
observable = "Fik Kinase %Inhibition"
quantitativeresult = 4.8

[[record]]
compound = "O=C1Nc2ccc(S(=O)(=O)Nc3ccc(C(F)(F)F)cc3)cc2C1=Cc1cccc(Oc2ccccc2)c1"
observable = "Fik Kinase %Inhibition"
quantitativeresult = 12.1

[[record]]
compound = "CC(C)(C)c1cc(C=C2C(=O)Nc3c(Br)cc(Br)cc32)cc(I)c1OCc1ccccc1"
observable = "Fik Kinase %Inhibition"
quantitativeresult = -5.2

[[record]]
compound = "CNS(=O)(=O)c1ccc2c(c1)C(=Cc1ccc(O)c(C)c1)C(=O)N2"
observable = "Fik Kinase %Inhibition"
quantitativeresult = 17.6

[[record]]
compound = "O=C1Nc2ccc(CCCl)cc2C1=Cc1ncc[nH]1"
observable = "Fik Kinase %Inhibition"
quantitativeresult = -18.0

[[record]]
compound = "Cc1c(Br)ccc2c1C(=Cc1cc(Cl)cc(Br)c1O)C(=O)N2"
observable = "Fik Kinase %Inhibition"
quantitativeresult = 0.2

[[record]]
compound = "COc1c(Cl)cc(C=C2C(=O)Nc3ccc(Br)c(C)c32)cc1C(C)(C)C"
observable = "Fik Kinase %Inhibition"
quantitativeresult = 8.0


I'd like to know its Fik Kinase %Inhibition. The compound in question is "O=C1Nc2ccc(CCCl)cc2C1=Cc1ccc[nH]1"
-29.7

I'd like to know its Fik Kinase %Inhibition. The compound in question is "CCOC(=O)c1cc(C=C2C(=O)Nc3ccc(Br)c(C)c32)oc1C"
16.8

I'd like to know its Fik Kinase %Inhibition. The compound in question is "CCOc1ccc(C=C2C(=O)Nc3ccc(S(=O)(=O)Nc4ccc(C(F)(F)F)cc4)cc32)cc1OC"
26.1

I'd like to know its Fik Kinase %Inhibition. The compound in question is O=C1Nc2ccc(CCCl)cc2C1=CC(c1cccs1)C(F)(F)F (stereo not drawn)
8.1

I'd like to know its Fik Kinase %Inhibition. The compound in question is "O=C1Nc2c(Br)cc(Br)cc2C1=Cc1ccc2ccccc2c1O"
6.9

I'd like to know its Fik Kinase %Inhibition. The compound in question is "O=C1Nc2ccc(S(=O)(=O)Nc3ccc(C(F)(F)F)cc3)cc2C1=Cc1ccncc1"
6.9

I'd like to know its Fik Kinase %Inhibition. The compound in question is "COc1ccc(C=C2C(=O)Nc3ccc(I)cc32)c2ccccc12"
11.2

I'd like to know its Fik Kinase %Inhibition. The compound in question is "O=C1Nc2ccc(CCCl)cc2C1=Cc1ccc(C(=O)O)cc1"
10.8

---

# testedTarget: UniProt P09619
# Sequence (P09619 33-1106, species assumed): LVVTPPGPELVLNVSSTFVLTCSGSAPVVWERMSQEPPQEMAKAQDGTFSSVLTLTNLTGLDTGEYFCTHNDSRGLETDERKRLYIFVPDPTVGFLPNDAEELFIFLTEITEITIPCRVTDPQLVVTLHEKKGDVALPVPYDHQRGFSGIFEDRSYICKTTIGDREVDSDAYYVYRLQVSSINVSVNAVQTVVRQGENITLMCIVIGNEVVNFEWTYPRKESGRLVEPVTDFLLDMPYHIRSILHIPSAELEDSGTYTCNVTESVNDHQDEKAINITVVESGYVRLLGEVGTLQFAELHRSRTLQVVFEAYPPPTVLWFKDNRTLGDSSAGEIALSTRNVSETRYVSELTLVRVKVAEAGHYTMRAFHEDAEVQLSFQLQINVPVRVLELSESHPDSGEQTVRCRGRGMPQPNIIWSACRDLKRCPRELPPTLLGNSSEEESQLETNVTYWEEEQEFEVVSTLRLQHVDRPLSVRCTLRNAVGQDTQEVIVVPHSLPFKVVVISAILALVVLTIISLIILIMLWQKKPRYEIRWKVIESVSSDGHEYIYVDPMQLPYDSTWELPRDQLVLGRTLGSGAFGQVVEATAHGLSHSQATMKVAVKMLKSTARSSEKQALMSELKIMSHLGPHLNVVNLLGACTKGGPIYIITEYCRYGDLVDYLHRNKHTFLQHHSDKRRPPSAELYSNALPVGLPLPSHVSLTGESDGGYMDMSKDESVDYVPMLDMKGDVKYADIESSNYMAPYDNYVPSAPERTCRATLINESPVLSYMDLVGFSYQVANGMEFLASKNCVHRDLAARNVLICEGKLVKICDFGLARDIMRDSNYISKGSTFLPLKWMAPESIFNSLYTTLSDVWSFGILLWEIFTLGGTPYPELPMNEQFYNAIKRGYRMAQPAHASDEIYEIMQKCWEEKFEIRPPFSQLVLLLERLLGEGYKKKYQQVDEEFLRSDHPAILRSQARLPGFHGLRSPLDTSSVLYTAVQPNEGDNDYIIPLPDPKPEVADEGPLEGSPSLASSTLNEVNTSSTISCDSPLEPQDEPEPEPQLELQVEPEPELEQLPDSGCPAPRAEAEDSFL
# assay: PDGF-R ELISA
# Type: cell-based
Items are presented alongside their recorded PDGF Kinase %Inhibition.
Write the number in % without appending the unit.

[[record]]
molecularstring = "Cc1c(Br)ccc2c1C(=Cc1ccc(-c3ccccc3Cl)o1)C(=O)N2"
unitofmeasurement = "%"
quantitativeresult = 1.0

[[record]]
molecularstring = "CNS(=O)(=O)c1ccc2c(c1)C(=Cc1ccc(OCc3ccccc3)c(C(C)(C)C)c1)C(=O)N2"
unitofmeasurement = "%"
quantitativeresult = 16.4

[[record]]
molecularstring = "O=C1Nc2ccc(S(=O)(=O)Nc3ccc(C(F)(F)F)cc3)cc2C1=Cc1ccc(F)cc1F"
unitofmeasurement = "%"
quantitativeresult = 32.9


We next turn to a different compound, shown below.
Form: Entry = "Cc1c(Br)ccc2c1C(=Cc1ccc(N3CCCC3)cc1)C(=O)N2" | System = UniProt P09619 | PDGF Kinase %Inhibition = ____
3.5

---

# testedTarget: FLK-1 receptor (Mus musculus)
# Construct: expressed in transfected cells; host or cells: NIH3T3 C7#3
# assay: FLK-1 ELISA (kinase activity of the FLK-1 receptor in FLK-1/NIH3T3 cells, VEGF stimulated)
# Type: cell-based
Items are presented alongside their recorded Fik Kinase %Inhibition.

Examples from the recorded data:
[[record]]
molecule = "O=C1Nc2ccc(CCCl)cc2C1=Cc1c[nH]cn1 [10725/G11]"
observable = "Fik Kinase %Inhibition"
result = "-28.0%"

[[record]]
molecule = "O=C1Nc2ccc(S(=O)(=O)Nc3ccc(C(F)(F)F)cc3)cc2C1=Cc1c[nH]cn1 [10725/E11]"
observable = "Fik Kinase %Inhibition"
result = "18.9%"

[[record]]
molecule = "CCOC(=O)c1c(C)[nH]c(C=C2C(=O)Nc3c(Br)cc(Br)cc32)c1C [10718/A02]"
observable = "Fik Kinase %Inhibition"
result = "3.0%"

[[record]]
molecule = "O=C1Nc2c(Br)cc(Br)cc2C1=Cc1cccnc1 [10729/A08]"
observable = "Fik Kinase %Inhibition"
result = "-13.3%"


I'd like to know its Fik Kinase %Inhibition. The molecule in question is CNS(=O)(=O)c1ccc2c(c1)C(=Cc1cc(Cl)c(O)c(C(C)(C)C)c1)C(=O)N2 [10722/D08]
29.1%

I'd like to know its Fik Kinase %Inhibition. The molecule in question is O=C1Nc2ccc(S(=O)(=O)Nc3ccc(C(F)(F)F)cc3)cc2C1=Cc1ccc([N+](=O)[O-])o1 [10718/E11]
12.1%

I'd like to know its Fik Kinase %Inhibition. The molecule in question is COc1cc(C=C2C(=O)Nc3ccc(CCCl)cc32)cc2c1OCO2 [10728/G11]
3.2%

I'd like to know its Fik Kinase %Inhibition. The molecule in question is COc1c(O)ccc(C=C2C(=O)Nc3ccc(I)cc32)c1[N+](=O)[O-] [10733/B11]
22.5%

I'd like to know its Fik Kinase %Inhibition. The molecule in question is CNS(=O)(=O)c1ccc2c(c1)C(=Cc1ccc(Cl)c([N+](=O)[O-])c1)C(=O)N2 [10718/D08]
3.9%

---

# System: MET
# assay: MET biochemical kinase assay
# Parameters: species or system human; concentration or dose not given beside the values
The label is True for Met Kinase % Inhibition below 40% and False for Met Kinase % Inhibition equal to or exceeding 40%.

Past entries and their recorded results:
[[record]]
molecule = "O=C1Nc2ccc(I)cc2C1=Cc1ccc([N+](=O)[O-])s1 [10722/B04]"
testedtarget = "MET"
labelvalue = "False"

[[record]]
molecule = "CNS(=O)(=O)c1ccc2c(c1)C(=Cc1c[nH]c3ccc(OC)cc13)C(=O)N2 [10731/D09]"
testedtarget = "MET"
labelvalue = "True"

[[record]]
molecule = "COc1c(Br)cc(C=C2C(=O)Nc3ccc(S(=O)(=O)Nc4ccc(C(F)(F)F)cc4)cc32)cc1C(C)(C)C [10732/E07]"
testedtarget = "MET"
labelvalue = "True"

[[record]]
molecule = "O=C1Nc2ccc(I)cc2C1=Cc1ccc(O)cc1O [10723/B08]"
testedtarget = "MET"
labelvalue = "False"

[[record]]
molecule = "CSc1ccc(C=C2C(=O)Nc3ccc(I)cc32)cc1 [10729/B04]"
testedtarget = "MET"
labelvalue = "False"

[[record]]
molecule = "O=C1Nc2ccc(CCCl)cc2C1=Cc1ccccc1Sc1ccc(Cl)cc1 [10727/G05]"
testedtarget = "MET"
labelvalue = "True"

[[record]]
molecule = "CSc1ccc(C=C2C(=O)Nc3ccc(S(=O)(=O)N4CCOCC4)cc32)s1 [10720/F07]"
testedtarget = "MET"
labelvalue = "False"

[[record]]
molecule = "O=C1Nc2c(Br)cc(Br)cc2C1=Cc1ccc(F)cc1F [10722/A06]"
testedtarget = "MET"
labelvalue = "False"


Hi there! Is Met Kinase % Inhibition for Cc1c(Br)ccc2c1C(=Cc1cccc(C(F)(F)F)c1F)C(=O)N2 [10728/C07] below 40%, do you know?
False

Hi there! Is Met Kinase % Inhibition for CC(C)(C)c1cc(C=C2C(=O)Nc3ccc(CCCl)cc32)cc(Br)c1OCc1ccccc1 [10732/G08] below 40%, do you know?
False

Hi there! Is Met Kinase % Inhibition for Cc1c(Br)ccc2c1C(=Cc1c(F)cc(F)cc1F)C(=O)N2 [10720/C02] below 40%, do you know?
False

Hi there! Is Met Kinase % Inhibition for Cc1c(Br)ccc2c1C(=Cc1cc3ccccc3o1)C(=O)N2 [10724/C07] below 40%, do you know?
True
